test system: SR leukemia; test: NCI-60 one-dose screen, 48 h; conditions: 10 µM unless noted
Compounds without any hit were thinned out: in the full panel of roughly 83,000, 20% have a hit. Calls of active or inactive are those of the source. The calls were made as follows: active = growth percent below 10; inactive = the rest.
Respond only with the outcome that fits, drawn from active, inactive

Enquiry: Test call for this molecule, please: CCN1C(=O)CC(=O)N(CC)C1=S
Return: inactive

Enquiry: And for CC[C@H](C)[C@H](NC(=O)c1cnccn1)C(=O)N(C)[C@H](C[C@@H](OC(C)=O)c1nc(C(=O)N[C@@H](Cc2ccccc2)C[C@H](C)C(=O)OC)cs1)C(C)C ?
Return: inactive

Enquiry: And for O=S(=O)(c1ccc(O)cc1)c1ccccc1O ?
Return: inactive

Enquiry: And for CO[C@H]1[C@H](O[C@@H]2C[C@@H]3C/C=C/C(=O)O[C@@H](CO)C[C@H](O)[C@@H]4C[C@H](C)[C@H](C/C=C\C=C\[C@H](C)C[C@H](C2)O3)O4)O[C@@H](C)[C@H](O)[C@H]1O ?
Return: inactive

Enquiry: And for O=C(O)C(O)c1ccc(Cl)cc1 (stereo unspecified) ?
Return: inactive

Enquiry: And for C[C@]12CCc3sc(Nc4ccc(O)cc4)nc3C1=CC[C@@H]1[C@@H]2CC[C@]2(C)C(=O)CC[C@@H]12 ?
Return: active
